Each record here notes measured Kd.
systemUnderTest: human recombinant EpCAM antigen (extracellular domain, residues 1 to 265, fused with 6×His tag and Avi-tag) (human) (UniProt P16422)
Sequence (P16422 24-265 limits assumed, form in doubt): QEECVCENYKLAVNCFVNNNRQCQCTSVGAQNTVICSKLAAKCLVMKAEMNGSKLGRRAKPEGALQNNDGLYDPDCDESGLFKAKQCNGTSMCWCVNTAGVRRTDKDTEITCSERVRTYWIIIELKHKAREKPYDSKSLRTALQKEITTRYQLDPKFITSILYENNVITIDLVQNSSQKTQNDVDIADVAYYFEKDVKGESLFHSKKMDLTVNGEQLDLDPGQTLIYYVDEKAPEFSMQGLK
protocolText: SPR (Biacore 2000), EpCAM on CM5 chip (about 211 RU), antibody 6.25-100 nM as analyte
Return type: number; implicit unit nM.

Output measured Kd for this item: epRas03 (4-14) (antibody, part only; not given: RT22 heavy chain, light constant, V domains shown, not shown: another chain or arm of the molecule; a dimerising Fc or GST, chain 1: disulfide bond Cys5-Cys10 closes the cyclic peptide) VL: RNLHCIGNLCWPMGSSSNDIQMTQSPSSLSASVGDRVTITCKSSQSLLNSRDGKNYLAWYQQKPGKAPKLLIYWASTRESGVPSRFSGSGSGTDFTLTISSLQPEDFATYFCQQYWYWMYTFGQGTKVEIK
183

The record that follows has no Kd shown yet.
Output measured Kd for this item: epRas03 (4-12) (antibody, part only; not given: RT22 heavy chain, light constant, V domains shown, not shown: another chain or arm of the molecule; a dimerising Fc or GST, chain 1: disulfide bond Cys5-Cys10 closes the cyclic peptide) VL: RNLLCLRRICWPMGSSSNDIQMTQSPSSLSASVGDRVTITCKSSQSLLNSRDGKNYLAWYQQKPGKAPKLLIYWASTRESGVPSRFSGSGSGTDFTLTISSLQPEDFATYFCQQYWYWMYTFGQGTKVEIK
17.7

Recorded values, source patent US20190389910A1.
